- Assay Target: human carbonic anhydrase IX (CAIX) (human, UniProt Q16790 38-459)
- Experiment: FACS competition, HT-29 cells, tracer 3BP-4149; pIC50 category A: >8.0
- Experimental: CAIX-expressing human HT-29 colorectal cancer cells (DSMZ, RRID: CVCL_0320) were cultured in McCoys's 5A modified medium (Biochrom, #F1015) including 10% fetal calf serum (FCS), 2 mM L-glutamine, 100 U/ml penicillin and 100 μg/mL streptomycin. […] Cells were washed twice with ice-cold FACS buffer and analyzed in an Attune NxT flow cytometer (Thermo Fisher). Median fluorescence intensities (MFI) of the APC/Cy5-channel were calculated by Attune NxT software.
Starred links: 1 amine or outer side, 2 acyl side, 3 side chain; linkers in the order of their positions; H or OH if unused. Positions of bridges follow the written chain, without caps; N, C: chain ends. Non-standard residues stand in square brackets, D forms with d. Primed or numbered codes have the meaning given here. *: point of attachment. Af3(HO-Glutar) = 3-aminophenylalanine acylated on the ring amine with glutaric acid (free COOH), O=C(CCCC(=O)[*:3])Nc1cccc(C[C@H](N[*:1])C(=O)[*:2])c1; Af3(3SaBz) = 3-aminophenylalanine, ring amine acylated with 3-sulfamoylbenzoic acid, NS(=O)(=O)c1cccc(C(=O)Nc2cccc(C[C@H](N[*:1])C(=O)[*:2])c2)c1; Phe(3-NHCO(CH2)3SO2NH2) = N[C@@H](Cc1cccc(NC(=O)CCCS(N)(=O)=O)c1)C(=O)O; APAc″ = 2-(4-(amino)piperidin-1-yl)acetic acid, NC1CCN(CC(=O)*)CC1; DOTA = O=C(O)CN1CCN(CC(=O)O)CCN(CC(=O)*)CCN(CC(=O)O)CC1; mXylylene = c1cc(C[*:1])cc(C[*:2])c1; APAc = not defined here; Dap = NC[C@H](N)C(=O)O
This listing pairs binders with measured pIC50.
Readout Name: pIC50

• {DOTA-APAc}-VYCE[dP]D[Af3(3SaBz)]LTWSC-NH2 (linker 3-12 via mXylylene; reading uncertain) [3BP-4409] = > 8 pic50
• {DOTA-APAc}-VDCE[dP]D[Phe(3-NHCO(CH2)3SO2NH2)]LTW[Dap]C-NH2 (lactam 2-11; linker 3-12 via mXylylene; reading uncertain) [3BP-4445] = > 8 pic50
• {DOTA-APAc″}-VYCE[dP]D[Af3(HO-Glutar)]LTWSC-NH2 (linker 3-12 via mXylylene) [3BP-4367] = > 8 pic50
